Experiment: blockers of DNA damage checkpoint Chk1 activation – imaging, HeLa, hydroxyurea, phospho-Chk1 antibody, percent positive cells, primary screen (AID 1186)
Conditions: hydroxyurea-induced phospho-Chk1 immunofluorescence imaging, higher = more signal
property: z-score

• COCCOC(=O)N1C(=O)[C@@]2(c3cc(C#Cc4ccc(OC)cc4)ccc31)[C@H](c1ccc(OCCO)cc1)N1[C@H](c3ccccc3)[C@H](c3ccccc3)OC(=O)[C@H]1[C@@H]2C(N)=O = 0.105
• COc1ccc(CCNC(=O)[C@@H]2c3ccccc3C(=O)N(Cc3ccccc3)[C@H]2c2ccc(CO)cc2)cc1 = -0.938
• CCOC(=O)C[C@H]1[C@H](OC(=O)c2ccc(C(=O)c3ccccc3)cc2)[C@@H](NC(=O)C2CCCCC2)c2cc(OCCCO)ccc2N1C(=O)Cc1ccc(OC)cc1 = 0.542
• COC(=O)[C@]1(Cc2ccccc2CN=[N+]=[N-])N=C(c2ccc(OCCCO)cc2)O[C@@H]1c1ccccc1 = -0.346
• COc1ccc([Si](C)(C)[C@@H]2[C@@H](CC(=O)N(CCO)Cc3ccccc3)O[C@]3(C(=O)N(Cc4ccc(N5CCOC5=O)cc4)c4ccccc43)[C@H]2C)cc1 = -0.269
• COc1ccc([Si](C)(C)[C@H]2[C@H](CCn3cc(CCO)nn3)O[C@@]3(C(=O)N(Cc4cccc(N5C(=O)c6cccc7cccc5c67)c4)c4ccccc43)[C@@H]2C)cc1 = -0.854
• C[N+](C)(C)CCCC[C@@H]1NC(=O)[C@@H]2C[C@H](C(=O)NCCCCCNC(=O)CS)[C@H](c3cccc(OCCO)c3)N2C1=O = -0.209
• N#Cc1ccc(NN2C(C(O)c3ccco3)C=CC3C(=O)N(c4ccccc4)C(=O)C32)cc1 (configuration not stated) = -0.124
• COc1ccc([Si](C)(C)[C@@H]2[C@@H](CCO)O[C@]3(C(=O)N(Cc4ccc(N5C(=O)c6ccccc6Oc6ccccc65)cc4)c4ccccc43)[C@H]2C)cc1 = -0.42
• CCOC(=O)C[C@H]1[C@H](OC(=O)Cc2ccc3c(c2)OCO3)[C@@H](NC(=O)c2ccccc2)c2cc(OCCCO)ccc2N1C(=O)c1ccccc1 = -0.454
• O=C1O[C@H](c2ccccc2)[C@H](c2ccccc2)N2[C@H]1[C@@H](C(=O)N1CCN(c3ncccn3)CC1)[C@]1(C(=O)Nc3ccc(C#CCCO)cc31)[C@H]2c1ccc(OCCO)cc1 = 0.177
• COCCOC(=O)N1C(=O)[C@@]2(c3cc(C#CC4(O)CCCCCC4)ccc31)[C@H](C(=O)N1CCN(c3ncccn3)CC1)[C@H]1C(=O)O[C@H](c3ccccc3)[C@H](c3ccccc3)N1[C@@H]2c1ccc(O)cc1 = 0.133

Reference source: PubChem BioAssay
